assay: chemical genetic growth profiling, strain panel (AID 1159580);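 also: tested at 20 µM; growth read once vehicle control cultures reached saturation at 30 °C; 1 = growth at the plate median or of vehicle wells; lower values mean less growth of the strain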; details: S. cerevisiae deletion strains, growth OD, locus YHR079C, strain IRE1, stronger effect = lower value
The whole screen tested about 5,500 compounds, of which about 2,000 (36%) were called active. Roughly 18% stayed inconclusive and do not appear here. The list shows a part of the results.
property: normalized growth
Write the number on its own, no unit after it.

// known answers, use as guide
{"columns": ["molecule", "normalized growth"],
 "data": [
  ["NC(=NCCCCCCN=C(N)N=C(N)Nc1ccc(Cl)cc1)N=C(N)Nc1ccc(Cl)cc1", 0.112],
  ["CC(C)N1C(=O)c2ccccc2NS1(=O)=O", 0.982],
  ["O=C1c2ccccc2C(=O)c2ccccc21", 1.04],
  ["CC(=O)c1ccc(Sc2ccccc2)c([N+](=O)[O-])c1", 0.813],
  ["C[C@]12[C@H](O)CC3C(CC[C@@H]4C[C@@H](O)CC[C@]34C)[C@@]1(O)CC[C@@H]2C1=CC(=O)OC1 (some centres not stated)", 0.993],
  ["O=C1C=CC(=O)c2c(O)cccc21", 0.972],
  ["CC(=O)Nc1c(I)cc(I)c(C(=O)O)c1I", 1],
  ["COC(=O)C[C@H]1C(C)(C)[C@@H](OC(C)=O)[C@@H]2CC3=C4CC(=O)O[C@@H](c5ccoc5)[C@]4(C)CCC3[C@@]1(C)C2=O (some centres not stated)", 0.992]
]}

For record O=C(O)C1=C(CSc2nnnn2CS(=O)(=O)O)CS[C@@H]2C(NC(=O)[C@H](O)c3ccccc3)C(=O)N12 (some centres not stated) the listed normalized growth is 1.03

For record `COc1ccc(NS(=O)(=O)c2ccc(N)cc2)nn1` the listed normalized growth is 0.995

For record `O=S(=O)(Nc1cc(C(F)(F)F)cc(C(F)(F)F)c1)c1ccc(Cl)s1` the listed normalized growth is 0.51

For record `CC(C)[C@@H]1CC[C@@H](C)C[C@H]1OC(=O)c1ccccc1` the listed normalized growth is 1.01

For record `CC1=C(C(=O)O)N2C(=O)[C@@H](NC(=O)[C@@H](N)c3ccc(O)cc3)[C@H]2SC1` the listed normalized growth is 0.99

For record `CCC[C@@H]1C[C@@H](C(=O)N[C@H]([C@H]2O[C@H](SC)[C@H](O)[C@@H](O)[C@H]2O)[C@H](C)O)N(C)C1` the listed normalized growth is 1.03

For record CC(C)c1cc2c(c(O)c1O)[C@@]1(C(=O)O)CCCC(C)(C)C1CC2 (some centres not stated) the listed normalized growth is 0.341

For record `O=C1NS(=O)(=O)c2ccccc21` the listed normalized growth is 0.984

For record `CC(C)[C@@H]1CC[C@@H](C)CC1=O` the listed normalized growth is 0.976

For record `C=CC[C@@H]1/C=C(\C)C[C@H](C)C[C@H](OC)[C@H]2O[C@@](O)(C(=O)C(=O)N3CCCC[C@H]3C(=O)O[C@H](/C(C)=C/[C@@H]3CC[C@@H](O)[C@H](OC)C3)[C@H](C)[C@@H](O)CC1=O)[C@H](C)C[C@@H]2OC` the listed normalized growth is 0.719

For record ClC1C(Cl)C(Cl)C(Cl)C(Cl)C1Cl (configuration not stated) the listed normalized growth is 0.985

For record `CNC(C)(C)Cc1ccccc1` the listed normalized growth is 1.04

For record `O=C1C(NCc2ccccc2)=C(NCc2ccccc2)C(=O)c2ccccc21` the listed normalized growth is 0.979

For record `O=C(Nc1ccc(F)cc1F)c1cc(Cl)ccc1O` the listed normalized growth is 0.845

For record `COC(=O)c1sccc1S(=O)(=O)Nc1cc(C(F)(F)F)cc(C(F)(F)F)c1` the listed normalized growth is 1.02

For record `Cn1c(=O)c2c(ncn2C)n(C)c1=O` the listed normalized growth is 0.993

For record `O=C1c2cccc(O)c2C(=O)c2c(O)cccc21` the listed normalized growth is 0.899

For record `O[C@@H]1[C@H](O)CO[C@H]1O` the listed normalized growth is 0.997
